System: Plasmodium falciparum
Experiment: Antimalarial activity against chloroquine-sensitive Plasmodium falciparum Nigerian infected in human red blood cells after 48 hrs by [3H]-hypoxanthine incorporation assay
Format: functional, organism-based
readout kind: pIC50
Convention used: pIC50 is expressed as -log10 of the molar concentration.

Looking up Fc1ccc(C(/C=C/C=C(\c2ccc(F)cc2)N2CCN(c3ccnc4cc(Cl)ccc34)CC2)=[N+]2CCN(c3ccnc4cc(Cl)ccc34)CC2)cc1 , I found its pIC50 recorded as 6.46

---

Tested on: Plasmodium falciparum
Test: Antimalarial activity against chloroquine-resistant Plasmodium falciparum W2 infected in human red blood cells assessed as reduction in parasitic LDH activity by Malstat reagent based spectrophotometric method
Assay type: functional, organism-based
Exercise: for every item that follows, state its recorded IC50.
Report as a plain number; the unit nM is understood.

Noted for Cc1cccc(C)c1Nc1nc(OCc2cn(CCNc3ccnc4cc(Cl)ccc34)nn2)nc(N(C)C)n1 : its IC50 reads 730

Memo: COc1ccc(OCc2cn(CCNc3ccnc4cc(Cl)ccc34)nn2)cc1 , reported IC50: 1120
